Recorded % ID/g uptake, H460 tumor, 72 h by entry
System: NCI-H460 tumor-bearing mice (lung cancer)
Assay info: Biodistribution: lutetium accumulation in tumor, plasma and healthy tissues by ICP-MS
Assay type: in vivo
Condition parameters: 0.5 mg/kg lutetium conjugate; H460 tumor; 72 h
Readout type: % ID/g uptake, H460 tumor, 72 h (% ID/g)

# Compound, Test value
records = [
    ("CCNC(=O)c1nnc(-c2cc(C(C)C)c(O)cc2O)n1-c1ccc(CN2CCN(C(=O)CCNC(=O)[C@@H](CCC(=O)N3CCN(Cc4ccc(-n5c(C(=O)NCC)nnc5-c5cc(C(C)C)c(O)cc5O)cc4)CC3)NC(=O)CCNC(=O)[C@@H](CCC(=O)O)NC(=O)[C@@H](CCC(=O)O)NC(=O)[C@@H](CCC(=O)O)NC(=O)COCCOCCNC(=O)CNC(=O)[C@H](CCCCN)NC(=O)CNC(=O)CC[C@H](C(=O)O)N3CCN4CCN5CCN(CC3)CC(=O)[O][Lu]([O]C(=O)C5)[O]C(=O)C4)CC2)cc1 [T9]", 0.93),
    ("CCNC(=O)c1nnc(-c2cc(C(C)C)c(O)cc2O)n1-c1ccc2c(ccn2CCC2CCN(C(=O)CC[C@H](NC(=O)CC[C@H](C(=O)O)N3CCN4CCN5CCN(CC3)CC(=O)[O][Lu]([O]C(=O)C5)[O]C(=O)C4)C(=O)N3CCC(CCn4ccc5cc(-n6c(C(=O)NCC)nnc6-c6cc(C(C)C)c(O)cc6O)ccc54)CC3)CC2)c1 [T10]", 3.18),
    ("CCNC(=O)c1nnc(-c2cc(C(C)C)c(O)cc2O)n1-c1ccc(OC2CCN(C(=O)CCNC(=O)[C@@H](CCC(=O)N3CCC(Oc4ccc(-n5c(C(=O)NCC)nnc5-c5cc(C(C)C)c(O)cc5O)cc4)CC3)NC(=O)CCNC(=O)[C@@H](CCC(=O)O)NC(=O)[C@@H](CCC(=O)O)NC(=O)[C@@H](CCC(=O)O)NC(=O)COCCOCCNC(=O)[C@H](CCCCNC(=O)CC[C@H](C(=O)O)N(CC)CCN3CCN4CCN(C)CC(=O)[O][Lu]([O]C(=O)C4)[O]C(=O)C3)NC(=O)CCCc3ccc(I)cc3)CC2)cc1 [T12]", 5.87),
    ("CCNC(=O)c1nnc(-c2cc(C(C)C)c(O)cc2O)n1-c1ccc(CN2CCN(C(=O)CC[C@H](NC(=O)CCNC(=O)[C@@H](CCC(=O)O)NC(=O)[C@@H](CCC(=O)O)NC(=O)[C@@H](CCC(=O)O)NC(=O)COCCOCCNC(=O)CC[C@H](C(=O)O)N3CCN4CCN5CCN(CC3)CC(=O)[O][Lu]([O]C(=O)C5)[O]C(=O)C4)C(=O)N3CCN(Cc4ccc(-n5c(C(=O)NCC)nnc5-c5cc(C(C)C)c(O)cc5O)cc4)CC3)CC2)cc1 [T5]", 0.00),
    ("CCNC(=O)c1nnc(-c2cc(C(C)C)c(O)cc2O)n1-c1ccc(OC2CCN(C(=O)CCNC(=O)[C@@H](CCC(=O)O)NC(=O)[C@@H](CCC(=O)O)NC(=O)[C@@H](CCC(=O)O)NC(=O)COCCOCCNC(=O)[C@H](CCCCNC(=O)CC[C@H](C(=O)O)N3CCN4CCN5CCN(CC3)CC(=O)[O][Lu]([O]C(=O)C5)[O]C(=O)C4)NC(=O)CCCc3ccc(I)cc3)CC2)cc1 [T11]", 1.74),
    ("CCNC(=O)c1nnc(-c2cc(C(C)C)c(O)cc2O)n1-c1ccc(OC2CCN(C(=O)CCNC(=O)[C@@H](CCC(=O)N3CCC(Oc4ccc(-n5c(C(=O)NCC)nnc5-c5cc(C(C)C)c(O)cc5O)cc4)CC3)NC(=O)CC[C@H](C(=O)O)N3CCN4CCN5CCN(CC3)CC(=O)[O][Lu]([O]C(=O)C5)[O]C(=O)C4)CC2)cc1 [T6]", 4.52),
]

---

System: NCI-H460 tumor-bearing mice (lung cancer)
Assay info: Biodistribution: lutetium accumulation in tumor, plasma and healthy tissues by ICP-MS
Assay type: in vivo
Condition parameters: 0.5 mg/kg lutetium conjugate; plasma; 72 h
Procedure: Lutetium accumulation was measured in tumor, plasma and healthy tissues of NCI-H460 tumor-bearing mice (lung cancer). NCJ-H460 tumor bearing mice were dosed with 0.5 mg/kg of lutetium conjugates. At the time points indicated, mice were sacrificed and tumor, liver, kidneys and plasma were taken. All tissues were analyzed for lutetium content by ICP-MS, and lutetium uptake in % ID/g determined by the following equation: […]
Readout type: % ID/g uptake, Plasma, 72 h

# Given smiles, Test value
measured = [
    ("CCNC(=O)c1nnc(-c2cc(C(C)C)c(O)cc2O)n1-c1ccc(OC2CCN(C(=O)CCNC(=O)[C@@H](CCC(=O)N3CCC(Oc4ccc(-n5c(C(=O)NCC)nnc5-c5cc(C(C)C)c(O)cc5O)cc4)CC3)NC(=O)CCNC(=O)[C@@H](CCC(=O)O)NC(=O)[C@@H](CCC(=O)O)NC(=O)[C@@H](CCC(=O)O)NC(=O)COCCOCCNC(=O)[C@H](CCCCNC(=O)CC[C@H](C(=O)O)N(CC)CCN3CCN4CCN(C)CC(=O)[O][Lu]([O]C(=O)C4)[O]C(=O)C3)NC(=O)CCCc3ccc(I)cc3)CC2)cc1", "0.41 % ID/g"),
]

---

Tested on: NCI-H460 tumor-bearing mice (lung cancer)
Assay info: Biodistribution: lutetium accumulation in tumor, plasma and healthy tissues by ICP-MS
Assay type: in vivo
Condition parameters: 24 h
T/L (Tumor/Liver ratio) reference

# Compound, T/L (Tumor/Liver ratio)
rows = [
    ("CCNC(=O)c1nnc(-c2cc(C(C)C)c(O)cc2O)n1-c1ccc(C2CN(C(=O)CCOCCOCCOCCOCCNC(=O)CN3CCN4CCN5CCN(CC3)CC(=O)[O][Lu]([O]C(=O)C4)[O]C(=O)C5)C2)cc1", 2.23),
    ("CCNC(=O)c1nnc(-c2cc(C(C)C)c(O)cc2O)n1-c1ccc(CC2CCN(C(=O)C[C@H](NC(=O)CC[C@H](C(=O)O)N3CCN4CCN5CCN(CC3)CC(=O)[O][Lu]([O]C(=O)C5)[O]C(=O)C4)C(=O)N[C@H](C)C(=O)N3CCC(Cc4ccc(-n5c(C(=O)NCC)nnc5-c5cc(C(C)C)c(O)cc5O)cc4)CC3)CC2)cc1", 0.79),
    ("CCNC(=O)c1nnc(-c2cc(C(C)C)c(O)cc2O)n1-c1ccc(CN2CCN(C(=O)CCNC(=O)[C@@H](CCC(=O)O)NC(=O)[C@@H](CCC(=O)O)NC(=O)[C@@H](CCC(=O)O)NC(=O)COCCOCCNC(=O)CCCCn3cc(CN(CCCNC(=O)CC[C@H](C(=O)O)N4CCN5CCN6CC(=O)[O][Lu]([O]C(=O)C5)[C]5(C6)OC(=O)CN5CC4)C(=O)CCCNC(=O)CCCc4ccc(I)cc4)nn3)CC2)cc1 (stereo partly drawn)", 5.6),
]

---

System: NCI-H460 tumor-bearing mice (lung cancer)
Assay info: Biodistribution: lutetium accumulation in tumor, plasma and healthy tissues by ICP-MS
Assay type: in vivo
Condition parameters: 24 h

# Given smiles, Measurement target, T/K (Tumor/Kidney ratio)
measured = [
    ("CCNC(=O)c1nnc(-c2cc(C(C)C)c(O)cc2O)n1-c1ccc(CC2CCN(C(=O)C[C@H](NC(=O)CC[C@H](C(=O)O)N3CCN4CCN5CCN(CC3)CC(=O)[O][Lu]([O]C(=O)C5)[O]C(=O)C4)C(=O)N[C@H](C)C(=O)N3CCC(Cc4ccc(-n5c(C(=O)NCC)nnc5-c5cc(C(C)C)c(O)cc5O)cc4)CC3)CC2)cc1", "NCI-H460 tumor-bearing mice (lung cancer)", 0.90),
    ("CCNC(=O)c1nnc(-c2cc(C(C)C)c(O)cc2O)n1-c1ccc(CC2CCN(C(=O)CCOCC(COCCC(=O)N3CCC(Cc4ccc(-n5c(C(=O)NCC)nnc5-c5cc(C(C)C)c(O)cc5O)cc4)CC3)NC(=O)CC[C@H](C(=O)O)N3CCN4CCN5CCN(CC3)CC(=O)[O][Lu]([O]C(=O)C5)[O]C(=O)C4)CC2)cc1", "NCI-H460 tumor-bearing mice (lung cancer)", 2.01),
    ("CCNC(=O)c1nnc(-c2cc(C(C)C)c(O)cc2O)n1-c1ccc(CC2CCN(C(=O)CCOCCOCCOCCOCCNC(=O)[C@H](CCCCNC(=O)CCCc3ccc(I)cc3)NC(=O)CN(CC)CCN3CCN4CCN(C)CC(=O)[O][Lu]([O]C(=O)C4)[O]C(=O)C3)CC2)cc1", "NCI-H460 tumor-bearing mice (lung cancer)", 2.53),
]

---

Test system: NCI-H460 tumor-bearing mice (lung cancer)
Assay info: Biodistribution: lutetium accumulation in tumor, plasma and healthy tissues by ICP-MS
Type: in vivo
Condition parameters: 0.5 mg/kg lutetium conjugate; kidney; 24 h
Readout type: % ID/g uptake, Kidney, 24 h (% ID/g)

# Given smiles, Readout type, Test value
rows = [
    ("CCNC(=O)c1nnc(-c2cc(C(C)C)c(O)cc2O)n1-c1ccc2c(ccn2CCC2CCN(C(=O)CCNC(=O)[C@@H](CCC(=O)O)NC(=O)[C@@H](CCC(=O)O)NC(=O)[C@@H](CCC(=O)O)NC(=O)COCCOCCNC(=O)[C@H](CCCCNC(=O)CC[C@H](C(=O)O)N3CCN4CCN5CCN(CC3)CC(=O)[O][Lu]([O]C(=O)C5)[O]C(=O)C4)NC(=O)CCCc3ccc(I)cc3)CC2)c1", "% ID/g uptake, Kidney, 24 h", 24.70),
    ("CCNC(=O)c1nnc(-c2cc(C(C)C)c(O)cc2O)n1-c1ccc(CN2CCN(C(=O)CC[C@H](NC(=O)CCNC(=O)[C@@H](CCC(=O)O)NC(=O)[C@@H](CCC(=O)O)NC(=O)[C@@H](CCC(=O)O)NC(=O)COCCOCCNC(=O)CC[C@H](C(=O)O)N3CCN4CCN5CCN(CC3)CC(=O)[O][Lu]([O]C(=O)C5)[O]C(=O)C4)C(=O)N3CCN(Cc4ccc(-n5c(C(=O)NCC)nnc5-c5cc(C(C)C)c(O)cc5O)cc4)CC3)CC2)cc1", "% ID/g uptake, Kidney, 24 h", 3.14),
    ("CCNC(=O)c1nnc(-c2cc(C(C)C)c(O)cc2O)n1-c1ccc(OC2CCN(C(=O)CCNC(=O)[C@@H](CCC(=O)N3CCC(Oc4ccc(-n5c(C(=O)NCC)nnc5-c5cc(C(C)C)c(O)cc5O)cc4)CC3)NC(=O)CC[C@H](C(=O)O)N3CCN4CCN5CCN(CC3)CC(=O)[O][Lu]([O]C(=O)C5)[O]C(=O)C4)CC2)cc1", "% ID/g uptake, Kidney, 24 h", 6.77),
]
